# tested-target: CLC-0 E166I mutant (Torpedo marmorata, UniProt P21564, C212S/E166I)
# Format: cell-based
# condition-summary: read-out: Apparent affinity (K1/2); −120 mV
pIC50 overview
Value format note: pIC50 is -log10 of concentration (mol/L); just state the number.

>>> observed("CCCCCCCC(=O)O [octanoate]")
4.59

For the next question, use this compound.
[ask] Using the record for O=C(O)COc1ccc(Cl)cc1 [CPA, p-chlorophenoxy acetate] , report its pIC50.
[reply] 3.93

---

# tested-target: wild-type CLC-0 (E166, C212S background) (Torpedo marmorata, UniProt P21564, C212S)
# Assay type: cell-based
# condition-summary: read-out: Apparent affinity (K1/2); −160 mV
observable: pIC50
Formally, pIC50 is defined as -log10 of the concentration c, with c in mol/L.

>>> observed("CCCCCCCC(=O)O [octanoate]")
3.72

Now look at this one.
[ask] # lookup: pIC50 of O=C(O)COc1ccc(Cl)cc1 [CPA, p-chlorophenoxy acetate]
[reply] 2.87

---

Overview of recorded pIC50 for various compounds
# tested-target: CLC-0 E166H mutant (Torpedo marmorata, UniProt P21564, C212S/E166H)
# Sequence (P21564 1-805 E166H/C212S): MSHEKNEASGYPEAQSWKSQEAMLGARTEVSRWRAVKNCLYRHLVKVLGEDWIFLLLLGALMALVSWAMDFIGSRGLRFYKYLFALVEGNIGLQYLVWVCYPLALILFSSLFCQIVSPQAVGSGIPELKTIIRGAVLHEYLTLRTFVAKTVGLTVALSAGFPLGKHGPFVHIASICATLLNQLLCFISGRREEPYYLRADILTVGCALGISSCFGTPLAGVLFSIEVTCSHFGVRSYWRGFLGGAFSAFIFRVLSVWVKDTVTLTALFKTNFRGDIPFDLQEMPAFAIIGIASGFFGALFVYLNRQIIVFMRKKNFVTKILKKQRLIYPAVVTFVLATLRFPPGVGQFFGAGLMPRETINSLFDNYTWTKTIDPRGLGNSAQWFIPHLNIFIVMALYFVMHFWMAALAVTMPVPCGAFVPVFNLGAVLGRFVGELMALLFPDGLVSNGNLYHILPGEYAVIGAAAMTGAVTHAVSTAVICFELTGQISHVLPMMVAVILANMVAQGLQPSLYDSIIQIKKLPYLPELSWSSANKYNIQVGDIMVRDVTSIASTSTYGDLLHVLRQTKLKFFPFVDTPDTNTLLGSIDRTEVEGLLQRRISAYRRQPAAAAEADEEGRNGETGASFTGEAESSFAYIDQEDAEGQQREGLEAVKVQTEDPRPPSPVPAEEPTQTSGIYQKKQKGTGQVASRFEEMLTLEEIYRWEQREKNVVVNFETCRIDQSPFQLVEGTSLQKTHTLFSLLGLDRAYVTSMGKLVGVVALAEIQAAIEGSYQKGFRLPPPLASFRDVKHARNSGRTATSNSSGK
# Type: cell-based
# condition-summary: read-out: Apparent affinity (K1/2); −100 mV
Formally, pIC50 is defined as -log10 of the concentration c, with c in mol/L.

>>> observed("CCCCCCCC(=O)O [octanoate]")
1.74

// next item, pIC50 requested
[ask] Reported pIC50 for O=C(O)COc1ccc(Cl)cc1 [CPA, p-chlorophenoxy acetate] : what is it?
[reply] 2.84

---

# tested-target: CLC-0 E166Y mutant (Torpedo marmorata, UniProt P21564, C212S/E166Y)
# Assay type: cell-based
# condition-summary: read-out: Apparent affinity (K1/2); −160 mV
observable: pIC50
Schema: pIC50 number; meaning minus log10 of the concentration expressed in molar units.

>>> observed("O=C(O)COc1ccc(Cl)cc1 [CPA, p-chlorophenoxy acetate]")
3.89

Next item in the queue.
[ask] # query: pIC50 of entry CCCCCCCC(=O)O [octanoate]
[reply] 2.47

---

# tested-target: wild-type CLC-0 (E166, C212S background) (Torpedo marmorata, UniProt P21564, C212S)
# Type: cell-based
# condition-summary: read-out: Apparent affinity (K1/2); −40 mV
observable: IC50 (mM)
Entry rule: numbers only, all in mM.

>>> observed("O=C(O)COc1ccc(Cl)cc1 [CPA, p-chlorophenoxy acetate]")
9.37

Proceeding to the next compound to report its IC50.
[ask] What measured IC50 goes with CCCCCCCC(=O)O [octanoate] ?
[reply] 2.61

---

# tested-target: CLC-0 E166S mutant (Torpedo marmorata, UniProt P21564, C212S/E166S)
# Sequence (P21564 1-805 E166S/C212S): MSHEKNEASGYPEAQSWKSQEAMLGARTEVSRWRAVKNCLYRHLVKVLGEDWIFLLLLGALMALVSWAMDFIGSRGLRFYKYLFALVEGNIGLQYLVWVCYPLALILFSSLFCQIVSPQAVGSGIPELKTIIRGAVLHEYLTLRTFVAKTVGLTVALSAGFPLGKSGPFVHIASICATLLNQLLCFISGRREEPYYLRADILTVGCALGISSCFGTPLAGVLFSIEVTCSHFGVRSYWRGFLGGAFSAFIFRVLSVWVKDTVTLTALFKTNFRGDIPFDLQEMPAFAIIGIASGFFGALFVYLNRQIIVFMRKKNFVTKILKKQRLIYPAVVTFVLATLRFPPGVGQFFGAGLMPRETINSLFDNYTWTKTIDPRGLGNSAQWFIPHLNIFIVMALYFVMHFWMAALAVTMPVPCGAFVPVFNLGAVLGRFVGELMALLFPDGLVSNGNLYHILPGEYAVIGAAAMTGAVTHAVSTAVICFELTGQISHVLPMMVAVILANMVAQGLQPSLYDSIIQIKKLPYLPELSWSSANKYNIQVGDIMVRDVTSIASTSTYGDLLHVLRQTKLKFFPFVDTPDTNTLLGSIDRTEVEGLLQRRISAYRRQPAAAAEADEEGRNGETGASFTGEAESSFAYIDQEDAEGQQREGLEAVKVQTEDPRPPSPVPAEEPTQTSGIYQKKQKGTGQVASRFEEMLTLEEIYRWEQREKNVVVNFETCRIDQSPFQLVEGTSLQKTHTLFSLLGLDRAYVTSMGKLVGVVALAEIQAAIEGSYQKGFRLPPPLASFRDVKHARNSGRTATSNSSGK
# Assay type: cell-based
# condition-summary: read-out: Apparent affinity (K1/2); −140 mV
observable: IC50 (µM)
The answer is to be given in µM; state only the numeric part.

>>> observed("O=C(O)COc1ccc(Cl)cc1 [CPA, p-chlorophenoxy acetate]")
35

// switching to the query molecule
[ask] Which IC50 value is on record for CCCCCCCC(=O)O [octanoate] ?
[reply] 26

---

A collection of compounds and their measured pIC50
# tested-target: CLC-0 E166Y mutant (Torpedo marmorata, UniProt P21564, C212S/E166Y)
# Type: cell-based
# condition-summary: read-out: Apparent affinity (K1/2); −140 mV
Reminder that pIC50 means the negative base-10 logarithm of the concentration expressed in mol/L.

>>> observed("O=C(O)COc1ccc(Cl)cc1 [CPA, p-chlorophenoxy acetate]")
3.66

Next, consider the following compound.
[ask] May I ask what pIC50 has been recorded for CCCCCCCC(=O)O [octanoate] ?
[reply] 2.30

---

# tested-target: CLC-0 E166N mutant (Torpedo marmorata, UniProt P21564, C212S/E166N)
# Type: cell-based
# condition-summary: read-out: Apparent affinity (K1/2); −140 mV
observable: pIC50
Note: pIC50 values are expressed as the negative base-10 logarithm of concentration in M.

>>> observed("CCCCCCCC(=O)O [octanoate]")
3.67

From here, focus on the item given below.
[ask] Please report the recorded pIC50 for O=C(O)COc1ccc(Cl)cc1 [CPA, p-chlorophenoxy acetate] .
[reply] 3.21

---

# tested-target: CLC-0 E166H mutant (Torpedo marmorata, UniProt P21564, C212S/E166H)
# Format: cell-based
# condition-summary: read-out: Apparent affinity (K1/2); −80 mV
Quick reference for pIC50 among some molecules
Would you please state pIC50, meaning minus log10 of the concentration in mol/L, as a bare number?

>>> observed("CCCCCCCC(=O)O [octanoate]")
1.53

The record that follows has no pIC50 shown yet.
[ask] Looking for the measured pIC50 of O=C(O)COc1ccc(Cl)cc1 [CPA, p-chlorophenoxy acetate] , can you help?
[reply] 2.54

---

# tested-target: CLC-0 E166C/E127Q mutant (E127Q/K519) (Torpedo marmorata, UniProt P21564, C212S/E127Q/E166C)
# Sequence (P21564 1-805 E127Q/E166C/C212S): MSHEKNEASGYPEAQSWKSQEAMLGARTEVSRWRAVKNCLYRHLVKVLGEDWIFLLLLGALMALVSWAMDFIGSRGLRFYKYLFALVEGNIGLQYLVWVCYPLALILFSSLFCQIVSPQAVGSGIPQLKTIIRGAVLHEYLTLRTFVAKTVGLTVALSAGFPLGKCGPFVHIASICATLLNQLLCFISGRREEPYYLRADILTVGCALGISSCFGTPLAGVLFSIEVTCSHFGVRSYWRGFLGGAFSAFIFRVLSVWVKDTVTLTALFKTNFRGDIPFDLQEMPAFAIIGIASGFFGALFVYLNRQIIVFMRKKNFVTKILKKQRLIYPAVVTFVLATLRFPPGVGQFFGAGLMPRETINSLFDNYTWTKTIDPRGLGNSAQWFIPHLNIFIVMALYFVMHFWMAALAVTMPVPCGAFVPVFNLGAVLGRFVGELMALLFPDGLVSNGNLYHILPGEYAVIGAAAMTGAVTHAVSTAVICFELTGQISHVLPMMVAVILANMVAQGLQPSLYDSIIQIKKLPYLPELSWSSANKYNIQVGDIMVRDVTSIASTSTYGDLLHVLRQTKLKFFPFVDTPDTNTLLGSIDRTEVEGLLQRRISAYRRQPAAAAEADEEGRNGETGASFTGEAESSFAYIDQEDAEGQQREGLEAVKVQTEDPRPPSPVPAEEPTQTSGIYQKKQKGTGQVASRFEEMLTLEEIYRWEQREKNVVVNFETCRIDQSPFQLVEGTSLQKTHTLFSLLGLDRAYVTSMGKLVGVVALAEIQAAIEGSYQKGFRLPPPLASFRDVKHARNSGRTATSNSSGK
# Assay type: cell-based
# condition-summary: read-out: Apparent affinity (K1/2); −100 mV
observable: pIC50
pIC50 is a log-scale quantity: -log10 of the concentration expressed in molar.

[ask] What value of pIC50 has been recorded for this entry: O=C(O)COc1ccc(Cl)cc1 [CPA, p-chlorophenoxy acetate]
[reply] 4.24

Sourced from paper PMC2606940
